Origin of the recorded values: PubChem BioAssay AID1159580

Assay: chemical genetic growth profiling, strain panel (AID 1159580);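 also: tested at 20 µM; growth read once vehicle control cultures reached saturation at 30 °C; 1 = growth at the plate median or of vehicle wells; lower values mean less growth of the strain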
Conditions: S. cerevisiae deletion strains, growth OD, locus YEL061C, strain CIN8 (second series), active compounds read low
In all, about 5,500 compounds went through this assay and about 2,000 (36%) were called active. Another 18% or so got no clear call; they are omitted. The list shows a part of the results.
Binary label based on normalized growth with cut-off 1: below gives T, not below gives F.

INSERT INTO assay_data (compound, group) VALUES
  ('CC(=O)O[C@@H]1C[C@@]2(C)[C@H](c3ccoc3)C[C@H]3O[C@]32[C@]2(C)C(=O)C(O)=C3C(C)(C)C(=O)C=C[C@]3(C)C12 (some centres not stated)', 'T'),
  ('CC/C(=C(\c1ccccc1)c1ccc(OCCN(C)C)cc1)c1ccccc1', 'T'),
  ('C=CC(C1=CC(=O)C(OC)=CC1=O)c1ccc(OC)cc1 (configuration not stated)', 'T'),
  ('O=C(O)c1ccccc1Nc1cccc(C(F)(F)F)c1', 'T'),
  ('CC1(C)CCCC2(C)C3C1[C@@H](O)C2(C)C[C@H]3O (some centres not stated)', 'F'),
  ('COc1ccc(C(Cl)=C(c2ccc(OC)cc2)c2ccc(OC)cc2)cc1', 'F');

====

normalized growth: recorded values
Experiment: chemical genetic growth profiling, strain panel (AID 1159580);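 also: tested at 20 µM; growth read once vehicle control cultures reached saturation at 30 °C; 1 = growth at the plate median or of vehicle wells; lower values mean less growth of the strain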
Details: S. cerevisiae deletion strains, growth OD, locus YKL067W, strain YNK1, active compounds read low
About 2,000 (36%) of roughly 5,500 compounds were called active. Not shown: some 18% with an inconclusive outcome. This is one part of the list.
attributeMeasured: normalized growth

INSERT INTO measurements (compound, val) VALUES
  ('O=C(NC(=O)c1c(F)cccc1Cl)OCc1ccc(Cl)cc1Cl', '0.9 (inactive)'),
  ('O=[N+]([O-])c1ccccc1CS(=O)(=O)c1nc2ccccc2s1', '0.921 (inactive)'),
  ('O=C(c1ccc2ccccc2c1)N1CCN(c2ccnc3cc(Cl)ccc23)CC1', '0.962 (inactive)'),
  ('Cc1ccc(S(=O)(=O)CCSC2=CC(=O)CC(C)(C)S2)cc1', '0.987 (inactive)'),
  ('CC(C)c1ccc(NC(=S)NC(=O)c2ccccc2)cc1', '0.953 (inactive)'),
  ('CC(C)c1ccc(NCC(O)CSc2ccccc2)cc1 (stereo not given)', '0.834 (inactive)'),
  ('COC(=O)C1=C(C)NC(C)=C(C(=O)OC)C1c1ccc(Cl)cc1Cl', '0.947 (inactive)'),
  ('Cc1c(C)c(C)c(CSC(N)=Nc2ccc(F)cc2)c(C)c1C', '0.955 (inactive)'),
  ('O=[N+]([O-])c1cc(Br)cnc1Sc1nnc(SCC2CC2)s1', '0.39 (active)'),
  ('FC(F)(F)c1cccc(NNC(=S)Nc2ccccc2)c1', '0.937 (inactive)'),
  ('N#CC(C#N)=C/C=C(/Sc1ccc(F)c(Cl)c1)c1ccc(Cl)cc1', '0.888 (inactive)'),
  ('CCOc1ccc(/C=C(\C)[N+](=O)[O-])cc1OC', '0.458 (active)'),
  ('CC(=O)Nc1ccc([N+](=O)[O-])cc1[N+](=O)[O-]', '0.284 (active)'),
  ('C/C(=C\c1ccc2c(c1)OCO2)[N+](=O)[O-]', '0.0865 (active)'),
  ('N#CC(C#N)=C/C=C(/Sc1nc2ccccc2s1)c1ccc(Br)cc1', '0.137 (active)'),
  ('Fc1cccc(Cl)c1CSc1nncn1-c1ccc(OCc2ccccc2)cc1', '0.999 (inactive)'),
  ('NC(=Nc1ccc(F)cc1)SCc1c(Cl)cccc1Cl', '0.962 (inactive)'),
  ('S=C(N/N=C\c1ccc(Cl)cc1)N/N=C\c1ccc(Cl)cc1', '0.645 (active)'),
  ('O=C(Nc1ccc(C(F)(F)F)cc1)N1CCN(c2ccnc3cc(Cl)ccc23)CC1', '0.992 (inactive)'),
  ('Cc1cccc(Cl)c1/C=N\NC(N)=S', '0.886 (inactive)'),
  ('O=C(NCCSCc1cccc(C(F)(F)F)c1)Nc1cccc(C(F)(F)F)c1', '1.01 (inactive)'),
  ('Fc1cccc(F)c1NC(=S)Nc1cc(C(F)(F)F)cc(C(F)(F)F)c1', '0.931 (inactive)'),
  ('CC(=O)Nc1ccc(/C=C/[N+](=O)[O-])cc1', '0.852 (inactive)'),
  ('CCOC(=O)C1=C(N)OC2=C(C(=O)CC(C)(C)C2)C1c1ccc(Cl)cc1Cl (stereo not given)', '0.959 (inactive)'),
  ('CSc1ccc(/C=C(\C)[N+](=O)[O-])cc1', '0.0912 (active)'),
  ('COc1ccc(C(=O)CSC2=NCCc3ccccc32)cc1', '0.997 (inactive)'),
  ('Cc1nn(Cc2ccc(C(=O)Sc3ccc(C(F)(F)F)cn3)o2)c(C)c1Br', '0.898 (inactive)'),
  ('Cc1cc(Cl)ccc1NC(=S)NNC(=S)Nc1ccc(F)cc1', '0.916 (inactive)'),
  ('OC(CNCc1ccc(Cl)cc1)CO/N=C\C1=C(Cl)c2cc(Cl)ccc2OC1 (stereo not given)', '0.937 (inactive)'),
  ('FC(F)(F)c1cccc(NC(=S)Nc2csc(C(F)(F)F)c2-c2ccccc2)c1', '0.963 (inactive)'),
  ('O=C(Nc1ccc(N2CCOCC2)cc1)c1ccc(-n2cccn2)cc1', '0.954 (inactive)'),
  ('CCCc1c(C(=O)NC2Cc3ccccc3C2)cnn1-c1ccccc1', '0.991 (inactive)'),
  ('CCCc1c(C(=O)NNc2cccc(Cl)c2)cnn1-c1ccccc1', '0.947 (inactive)'),
  ('CC(C)c1ccc(N2C=Nc3ccc(C(C)C)cc3C2)cc1', '0.963 (inactive)'),
  ('O=C(NC(=S)Nc1cccc(C(F)(F)F)c1)c1ccc2nonc2c1', '0.979 (inactive)');

====

Assay: chemical genetic growth profiling, strain panel (AID 1159580);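 also: tested at 20 µM; growth read once vehicle control cultures reached saturation at 30 °C; 1 = growth at the plate median or of vehicle wells; lower values mean less growth of the strain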
Settings: S. cerevisiae deletion strains, growth OD, locus YOR231W, strain MKK1
Out of some 5,500 compounds screened, about 2,000 (36%) were called active. About 18% were inconclusive and are not listed. No stated cut-off is given here; in the data, active means normalized growth mostly below about 0.91 (no sharp cut-off); inconclusive means no clear call, values can overlap the other calls; inactive means mostly above about 0.92. The list shows a part of the results.
Labels: yes (active), no (inactive)

INSERT INTO measurements (compound, group) VALUES
  ('O=C(O)CS', 'no'),
  ('O=C(O)c1ccccc1Nc1ccccc1', 'yes'),
  ('CC(C)NCC(O)c1ccc(O)c(O)c1 (configuration not stated)', 'no'),
  ('O=C(Nc1ccc(C(F)(F)F)cc1)N1CCN(c2ccnc3cc(Cl)ccc23)CC1', 'no'),
  ('CNC[C@@H](O)c1ccc(O)c(O)c1', 'no'),
  ('CC/C(=C(\c1ccccc1)c1ccc(OCCN(C)C)cc1)c1ccccc1', 'no'),
  ('O=C(O)c1ccccc1Nc1cccc(OCc2ccc3ccccc3n2)c1', 'no'),
  ('CN(C)CCOC(C)(c1ccccc1)c1ccccn1 (configuration not stated)', 'no'),
  ('CCN(CC)CCOc1ccc2c(c1)C(=O)c1cc(OCCN(CC)CC)ccc1-2', 'no'),
  ('COc1cc(C(=O)NCc2ccc(OCCN(C)C)cc2)cc(OC)c1OC', 'no'),
  ('NCC(O)c1ccc(O)cc1 (configuration not stated)', 'no'),
  ('COc1ccc(C(Cl)=C(c2ccc(OC)cc2)c2ccc(OC)cc2)cc1', 'no');

====

normalized growth: recorded values
Experiment: chemical genetic growth profiling, strain panel (AID 1159580);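 also: tested at 20 µM; growth read once vehicle control cultures reached saturation at 30 °C; 1 = growth at the plate median or of vehicle wells; lower values mean less growth of the strain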
Details: S. cerevisiae deletion strains, growth OD, locus YDR502C, strain sam2, active compounds read low
Hit rate of the full screen: of about 5,500 compounds, about 2,000 (36%) were called active. Another 18% or so got no clear call; they are omitted. The list shows a part of the results.
attributeMeasured: normalized growth

INSERT INTO assay_data (compound, val) VALUES
  ('O=[N+]([O-])c1ccc(O)c([N+](=O)[O-])c1', 0.735),
  ('CC(=O)O[C@H]1C[C@@H](OC(C)=O)C(C)(C)C2C[C@@H](OC(C)=O)[C@@]3(C)C4=CC(=O)O[C@@H](c5ccoc5)[C@]4(C)CCC3[C@]21C (stereo partly drawn)', 0.98),
  ('Nc1ncn([C@@H]2O[C@H](CO)[C@@H](O)[C@H]2O)c(=O)n1', 1.01),
  ('O=C(O)CCCCC1CCSS1 (stereo not drawn)', 0.975),
  ('COc1c2c(cc3c1OCO3)CCN(C)C2', 1),
  ('CSCCC(NC=O)C(=O)NC(C)C(=O)O (stereo not drawn)', 0.992),
  ('C=C(C)[C@H]1CC=C(C(=O)O)CC1', 0.926),
  ('COc1cc(OC)c2c(=O)c(-c3ccccc3)c(C)oc2c1OC', 0.997),
  ('O=[N+]([O-])c1cc(O)c(O)c([N+](=O)[O-])c1', 1),
  ('O=[N+]([O-])c1cc([As](=O)(O)O)ccc1O', 0.247),
  ('NCCCC[C@H](N[C@@H](CCc1ccccc1)C(=O)O)C(=O)N1CCC[C@H]1C(=O)O', 0.999),
  ('Nc1nc2c(ncn2C2C[C@H](O)[C@@H](CO)O2)c(=O)[nH]1 (stereo partly drawn)', 0.359),
  ('COC(=O)Oc1ccccc1C(=O)O', 1.01),
  ('C=C(CC)C(=O)c1ccc(OCC(=O)O)c(Cl)c1Cl', 0.984),
  ('O=C(O)c1cccnc1Nc1cccc(C(F)(F)F)c1', 0.963),
  ('C[n+]1cccc(C(=O)[O-])c1', 1),
  ('COc1cc2c(c(OC)c1OC)-c1ccc(O)c(=O)cc1[C@@H](NC(C)=O)CC2', 0.93),
  ('COc1cc2c(c(OC)c1OC)-c1ccc(OC)c(=O)cc1[C@@H](NC(C)=O)CC2', 1.02);
